Just for reference, PubChem BioAssay AID1919016 is where these values come from.

Test system: NCI-H196 complex spheroid growth, percent test/control
assay.protocol: Anticancer human tumor NCI-H196 cell line growth inhibition [AhR]
cond: second compound 0.1 µM; first compound 0.1 µM; active compounds read low
property.measured: viability, T/C (%)
Give the quantity in %, number only.

Previously resolved entries follow.
[
  {
    "compound": "O=C(c1cc(Cc2n[nH]c(=O)c3ccccc23)ccc1F)N1CCN(C(=O)C2CC2)CC1 + Cc1cncc(-c2nc(NCCc3c[nH]c4ccccc34)c3ncn(C(C)C)c3n2)c1",
    "tested.system": "NCI-H196 complex spheroid growth, percent test/control",
    "property.measured": "viability, T/C",
    "meas.value": 102
  },
  {
    "compound": "CC1(C)CCC(CN2CCN(c3ccc(C(=O)NS(=O)(=O)c4ccc(NCC5CCOCC5)c([N+](=O)[O-])c4)c(Oc4cnc5[nH]ccc5c4)c3)CC2)=C(c2ccc(Cl)cc2)C1 + CC(CO)NC(=O)c1cc(-c2ccc(Cl)cc2)nn(-c2cnn(C)c2)c1=O",
    "tested.system": "NCI-H196 complex spheroid growth, percent test/control",
    "property.measured": "viability, T/C",
    "meas.value": 100
  }
]

// lookup viability, T/C | system=NCI-H196 complex spheroid growth, percent test/control | key= Cn1ncnc1C1c2n[nH]c(=O)c3cc(F)cc(c23)NC1c1ccc(F)cc1 (configuration not stated) + CC(CO)NC(=O)c1cc(-c2ccc(Cl)cc2)nn(-c2cnn(C)c2)c1=O
103

// lookup viability, T/C | system=NCI-H196 complex spheroid growth, percent test/control | key= Nc1ccn(C2OC(CO)C(O)C2(F)F)c(=O)n1 (configuration not stated) + CC(CO)NC(=O)c1cc(-c2ccc(Cl)cc2)nn(-c2cnn(C)c2)c1=O
93.3

// lookup viability, T/C | system=NCI-H196 complex spheroid growth, percent test/control | key= COc1cc(C2c3cc4c(cc3C(OC3OC5COC(C)OC5C(O)C3O)C3COC(=O)C23)OCO4)cc(OC)c1O (configuration not stated) + Cc1cncc(-c2nc(NCCc3c[nH]c4ccccc34)c3ncn(C(C)C)c3n2)c1
103

// lookup viability, T/C | system=NCI-H196 complex spheroid growth, percent test/control | key= CC1COCCN1c1cc(-c2ccnn2C)c2ccnc(-c3ccn[nH]3)c2n1 (configuration not stated) + Cc1ccccc1N=Nc1ccc(NC(=O)c2ccnn2C)c(C)c1
66

// lookup viability, T/C | system=NCI-H196 complex spheroid growth, percent test/control | key= NS(=O)(=O)OCC1CC(n2ccc3c(NC4CCc5ccccc54)ncnc32)CC1O (configuration not stated) + Cc1ccccc1N=Nc1ccc(NC(=O)c2ccnn2C)c(C)c1
84.2

// lookup viability, T/C | system=NCI-H196 complex spheroid growth, percent test/control | key= Nc1ncn(C2CC(O)C(CO)O2)c(=O)n1 (configuration not stated) + Cc1cncc(-c2nc(NCCc3c[nH]c4ccccc34)c3ncn(C(C)C)c3n2)c1
97.9

###

In this section we review reported viability, T/C values for a set of compounds.
System: NCI-H196 complex spheroid growth, percent test/control
assay.protocol: Anticancer human tumor NCI-H196 cell line growth inhibition [AhR];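 note: seven days of drug exposure starting three days after plating; 100% = DMSO vehicle control wells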
cond: second compound 0.1 µM; first compound 10 µM; active compounds read low
Give the quantity in %, number only.

[
  {
    "compound": "COc1ccc([C@@H](O)c2cc(-c3ncnc4cc(N5CCOCC5)ccc34)c(F)cc2Cl)nn1 + Cc1ccccc1N=Nc1ccc(NC(=O)c2ccnn2C)c(C)c1",
    "viability, T/C / %": 65.4
  }
]

Please turn your attention to the following entry.
Which value of viability, T/C has been reported for COc1cccc2c1C(=O)c1c(O)c3c(c(O)c1C2=O)CC(O)(C(=O)CO)CC3OC1CC(N)C(O)C(C)O1 (stereo not given) + Cc1ccccc1N=Nc1ccc(NC(=O)c2ccnn2C)c(C)c1 in the records?
7.85

###

In this section we review reported viability, T/C values for a set of compounds.
System: NCI-H196 complex spheroid growth, percent test/control
assay.protocol: Anticancer human tumor NCI-H196 cell line growth inhibition [AhR];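 note: seven days of drug exposure starting three days after plating; 100% = DMSO vehicle control wells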
cond: second compound 0.1 µM; first compound 0.000316 µM; active compounds read low

Which value of viability, T/C has been reported for Cn1ncnc1C1c2n[nH]c(=O)c3cc(F)cc(c23)NC1c1ccc(F)cc1 (stereo not drawn) + CC(CO)NC(=O)c1cc(-c2ccc(Cl)cc2)nn(-c2cnn(C)c2)c1=O in the records?
111%

Which value of viability, T/C has been reported for CC[C@@]1(O)C(=O)OCc2c1cc1n(c2=O)Cc2cc3c(CN(C)C)c(O)ccc3nc2-1 + CC(CO)NC(=O)c1cc(-c2ccc(Cl)cc2)nn(-c2cnn(C)c2)c1=O in the records?
104%

Which value of viability, T/C has been reported for CC[C@@]1(O)C(=O)OCc2c1cc1n(c2=O)Cc2cc3c(CN(C)C)c(O)ccc3nc2-1 + Cc1cncc(-c2nc(NCCc3c[nH]c4ccccc34)c3ncn(C(C)C)c3n2)c1 in the records?
105%

###

Test system: NCI-H196 complex spheroid growth, percent test/control
assay.protocol: Anticancer human tumor NCI-H196 cell line growth inhibition [AhR];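 note: seven days of drug exposure starting three days after plating; 100% = DMSO vehicle control wells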
cond: second compound 0.1 µM; first compound 0.1 µM; active compounds read low
In this section we review reported viability, T/C values for a set of compounds.
Give the quantity in %, number only.

[
  {
    "compound": "COc1cccc2c1C(=O)c1c(O)c3c(c(O)c1C2=O)CC(O)(C(=O)CO)CC3OC1CC(N)C(O)C(C)O1 (configuration not stated) + Cc1cncc(-c2nc(NCCc3c[nH]c4ccccc34)c3ncn(C(C)C)c3n2)c1",
    "viability, T/C / %": 102
  }
]

Please turn your attention to the following entry.
Which value of viability, T/C has been reported for CC1(C)CCC(CN2CCN(c3ccc(C(=O)NS(=O)(=O)c4ccc(NCC5CCOCC5)c([N+](=O)[O-])c4)c(Oc4cnc5[nH]ccc5c4)c3)CC2)=C(c2ccc(Cl)cc2)C1 + Cc1cncc(-c2nc(NCCc3c[nH]c4ccccc34)c3ncn(C(C)C)c3n2)c1 in the records?
97.8

###

Tested on: NCI-H196 complex spheroid growth, percent test/control
assay.protocol: Anticancer human tumor NCI-H196 cell line growth inhibition [AhR];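 note: seven days of drug exposure starting three days after plating; 100% = DMSO vehicle control wells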
cond: second compound 1 µM; first compound 0.1 µM; active compounds read low
In this section we review reported viability, T/C values for a set of compounds.
Give the quantity in %, number only.

Previously resolved entries follow.
[
  {
    "compound": "Nc1ncn(C2CC(O)C(CO)O2)c(=O)n1 (stereo not drawn) + Cc1cncc(-c2nc(NCCc3c[nH]c4ccccc34)c3ncn(C(C)C)c3n2)c1",
    "unit.symbol": "%",
    "viability, T/C": 96.3
  },
  {
    "compound": "Nc1ccn(C2OC(CO)C(O)C2(F)F)c(=O)n1 (stereo not drawn) + Cc1ccccc1N=Nc1ccc(NC(=O)c2ccnn2C)c(C)c1",
    "unit.symbol": "%",
    "viability, T/C": 90.4
  },
  {
    "compound": "CC1(C)CCC(CN2CCN(c3ccc(C(=O)NS(=O)(=O)c4ccc(NCC5CCOCC5)c([N+](=O)[O-])c4)c(Oc4cnc5[nH]ccc5c4)c3)CC2)=C(c2ccc(Cl)cc2)C1 + Cc1ccccc1N=Nc1ccc(NC(=O)c2ccnn2C)c(C)c1",
    "unit.symbol": "%",
    "viability, T/C": 107
  },
  {
    "compound": "Cn1ncnc1C1c2n[nH]c(=O)c3cc(F)cc(c23)NC1c1ccc(F)cc1 (stereo not drawn) + Cc1cncc(-c2nc(NCCc3c[nH]c4ccccc34)c3ncn(C(C)C)c3n2)c1",
    "unit.symbol": "%",
    "viability, T/C": 104
  },
  {
    "compound": "CC(C)c1c(-c2ccccc2)nc2c(C#N)c[nH]n2c1=O + Cc1ccccc1N=Nc1ccc(NC(=O)c2ccnn2C)c(C)c1",
    "unit.symbol": "%",
    "viability, T/C": 96.9
  }
]

Which value of viability, T/C has been reported for O=C(C=Cc1cccc(S(=O)(=O)Nc2ccccc2)c1)NO + Cc1ccccc1N=Nc1ccc(NC(=O)c2ccnn2C)c(C)c1 in the records?
94.5

Which value of viability, T/C has been reported for O=C(C=Cc1cccc(S(=O)(=O)Nc2ccccc2)c1)NO + CC(CO)NC(=O)c1cc(-c2ccc(Cl)cc2)nn(-c2cnn(C)c2)c1=O in the records?
99.5

Which value of viability, T/C has been reported for CC1COCCN1c1cc(C2(S(C)(=N)=O)CC2)nc(-c2ccnc3[nH]ccc23)n1 (stereo not drawn) + Cc1cncc(-c2nc(NCCc3c[nH]c4ccccc34)c3ncn(C(C)C)c3n2)c1 in the records?
96

Which value of viability, T/C has been reported for COc1cc(C2c3cc4c(cc3C(OC3OC5COC(C)OC5C(O)C3O)C3COC(=O)C23)OCO4)cc(OC)c1O (stereo not drawn) + Cc1ccccc1N=Nc1ccc(NC(=O)c2ccnn2C)c(C)c1 in the records?
94.6

Which value of viability, T/C has been reported for O=C(c1cc(Cc2n[nH]c(=O)c3ccccc23)ccc1F)N1CCN(C(=O)C2CC2)CC1 + Cc1ccccc1N=Nc1ccc(NC(=O)c2ccnn2C)c(C)c1 in the records?
107
